Please provide measured pIC50 for the entries that follow.
target: Serine-protein kinase ATM (Homo sapiens, UniProt Q13315); assay: Cellular Assay: Assay a) HT29 cells (ECACC #85061109) were seeded into 384 well assay plates (Costar #3712) at a density of 3500 cells/well in 40 μl EMEM medium containing 1% L glutamine and 10% FBS and allowed to adhere overnight. The following morning compounds of Formula (I) in 100% DMSO were added to assay plates by acoustic dispensing. After 1 h incubation at 37° C. and 5% CO2 plates (up to …
Sequence (Q13315 whole entry): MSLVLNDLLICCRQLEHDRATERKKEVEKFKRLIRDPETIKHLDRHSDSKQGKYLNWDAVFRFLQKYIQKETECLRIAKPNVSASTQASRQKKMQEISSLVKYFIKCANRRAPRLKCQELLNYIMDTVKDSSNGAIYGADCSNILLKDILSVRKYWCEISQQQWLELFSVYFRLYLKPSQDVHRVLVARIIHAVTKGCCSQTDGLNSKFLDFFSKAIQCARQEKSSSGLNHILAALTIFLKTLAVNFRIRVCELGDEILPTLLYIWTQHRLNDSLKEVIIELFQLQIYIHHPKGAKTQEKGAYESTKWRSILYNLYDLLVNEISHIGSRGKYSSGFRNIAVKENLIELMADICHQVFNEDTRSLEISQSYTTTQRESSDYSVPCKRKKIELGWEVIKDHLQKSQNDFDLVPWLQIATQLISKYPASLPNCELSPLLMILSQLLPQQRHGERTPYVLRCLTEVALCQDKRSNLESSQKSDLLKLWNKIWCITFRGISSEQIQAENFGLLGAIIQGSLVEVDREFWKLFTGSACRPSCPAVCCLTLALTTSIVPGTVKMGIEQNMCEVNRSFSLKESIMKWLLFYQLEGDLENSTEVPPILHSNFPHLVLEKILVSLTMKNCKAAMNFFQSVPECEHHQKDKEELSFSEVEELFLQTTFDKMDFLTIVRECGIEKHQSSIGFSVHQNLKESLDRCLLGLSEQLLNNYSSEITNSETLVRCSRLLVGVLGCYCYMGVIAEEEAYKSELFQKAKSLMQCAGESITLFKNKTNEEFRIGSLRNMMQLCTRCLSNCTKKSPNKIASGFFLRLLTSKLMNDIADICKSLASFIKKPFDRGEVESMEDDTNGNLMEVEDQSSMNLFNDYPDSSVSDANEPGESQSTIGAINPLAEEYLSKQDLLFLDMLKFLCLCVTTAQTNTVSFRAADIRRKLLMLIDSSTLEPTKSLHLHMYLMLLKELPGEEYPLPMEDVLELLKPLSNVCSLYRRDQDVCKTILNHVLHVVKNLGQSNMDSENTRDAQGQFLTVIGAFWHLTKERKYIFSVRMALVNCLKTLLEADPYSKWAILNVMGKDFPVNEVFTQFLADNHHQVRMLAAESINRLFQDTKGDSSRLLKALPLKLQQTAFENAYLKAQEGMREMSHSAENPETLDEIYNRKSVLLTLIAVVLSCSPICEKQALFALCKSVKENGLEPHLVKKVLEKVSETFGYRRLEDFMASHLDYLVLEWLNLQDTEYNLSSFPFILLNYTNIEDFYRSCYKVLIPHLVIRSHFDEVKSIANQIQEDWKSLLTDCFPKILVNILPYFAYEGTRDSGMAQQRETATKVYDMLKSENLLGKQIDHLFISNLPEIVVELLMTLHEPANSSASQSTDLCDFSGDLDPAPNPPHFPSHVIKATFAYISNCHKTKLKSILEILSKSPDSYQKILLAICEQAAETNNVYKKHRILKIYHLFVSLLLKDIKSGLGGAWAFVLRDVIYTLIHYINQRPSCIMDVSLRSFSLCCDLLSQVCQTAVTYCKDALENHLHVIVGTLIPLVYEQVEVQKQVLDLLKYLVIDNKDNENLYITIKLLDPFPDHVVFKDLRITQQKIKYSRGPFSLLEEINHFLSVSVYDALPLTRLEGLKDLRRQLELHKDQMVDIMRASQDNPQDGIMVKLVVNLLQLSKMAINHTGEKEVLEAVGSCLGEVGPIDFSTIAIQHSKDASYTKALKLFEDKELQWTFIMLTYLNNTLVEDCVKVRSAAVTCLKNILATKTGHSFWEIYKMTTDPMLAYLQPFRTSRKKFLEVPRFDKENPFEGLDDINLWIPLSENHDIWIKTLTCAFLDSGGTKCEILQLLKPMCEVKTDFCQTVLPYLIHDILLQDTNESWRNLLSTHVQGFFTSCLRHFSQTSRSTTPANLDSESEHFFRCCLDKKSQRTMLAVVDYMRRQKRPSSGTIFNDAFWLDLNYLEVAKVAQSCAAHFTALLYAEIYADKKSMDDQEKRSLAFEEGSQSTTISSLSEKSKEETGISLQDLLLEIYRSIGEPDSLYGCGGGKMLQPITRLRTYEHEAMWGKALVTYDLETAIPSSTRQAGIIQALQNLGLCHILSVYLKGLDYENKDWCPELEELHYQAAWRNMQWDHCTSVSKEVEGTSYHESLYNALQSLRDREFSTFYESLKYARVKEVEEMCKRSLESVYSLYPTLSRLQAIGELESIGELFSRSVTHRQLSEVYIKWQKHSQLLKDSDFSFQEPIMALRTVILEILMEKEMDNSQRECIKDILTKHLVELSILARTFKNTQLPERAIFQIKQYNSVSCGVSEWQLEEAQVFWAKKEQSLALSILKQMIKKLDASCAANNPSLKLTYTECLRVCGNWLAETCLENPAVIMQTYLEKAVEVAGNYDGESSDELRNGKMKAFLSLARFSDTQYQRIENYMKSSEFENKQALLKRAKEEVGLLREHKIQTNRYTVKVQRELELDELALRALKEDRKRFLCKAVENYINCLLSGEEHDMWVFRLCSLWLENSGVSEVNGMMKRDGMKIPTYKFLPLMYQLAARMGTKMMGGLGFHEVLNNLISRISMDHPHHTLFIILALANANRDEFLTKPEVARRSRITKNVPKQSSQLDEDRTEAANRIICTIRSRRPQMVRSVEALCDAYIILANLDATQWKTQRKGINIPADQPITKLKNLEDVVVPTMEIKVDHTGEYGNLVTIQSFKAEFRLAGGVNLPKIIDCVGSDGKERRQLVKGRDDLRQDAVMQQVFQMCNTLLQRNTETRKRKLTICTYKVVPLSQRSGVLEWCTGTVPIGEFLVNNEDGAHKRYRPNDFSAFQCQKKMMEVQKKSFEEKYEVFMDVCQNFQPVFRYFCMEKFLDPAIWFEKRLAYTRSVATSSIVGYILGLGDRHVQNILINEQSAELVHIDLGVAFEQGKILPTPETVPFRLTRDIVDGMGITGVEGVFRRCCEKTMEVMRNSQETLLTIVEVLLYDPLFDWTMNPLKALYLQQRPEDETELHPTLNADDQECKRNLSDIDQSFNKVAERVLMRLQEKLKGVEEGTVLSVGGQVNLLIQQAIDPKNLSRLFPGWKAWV
Numbers only, as −log10 of the molar value.

Answered cases to consult:
INSERT INTO results (query_smiles, number) VALUES
  ('CN(C)CCCOc1ccc(-c2cc3c(cc2F)ncc2c3n([C@@H]3CCCOC3)c(=O)n2C)cn1', 9.00),
  ('CN(C)CCCOc1ccc(-c2ccc3ncc4c(c3c2)n([C@H]2C[C@@H](O)C2)c(=O)n4C)cn1', 9.62),
  ('CN(C)CCCOc1ccc(-c2cc3c(cc2F)ncc2c3n([C@H]3CCCOC3)c(=O)n2C)cn1', 8.94);

// query Give pIC50 for CN(C)CCCOc1ccc(-c2ccc3ncc4c(c3c2)n(C2COC2)c(=O)n4C)cn1
// result 8.84
